protocol: Toxicokinetics, rabbit main EFD study
assay.context: female, in vivo, 1 mg/kg/day
recorded.endpoint: Cmax (ng/mL)
Numbers only, in ng/mL.

get_value(item= CS(=O)(=O)c1ccc(-c2cnc(N)c(-c3ccc(C(F)(F)F)nc3)c2)cc1 , readout=Cmax) returns 250

----------
protocol: Toxicokinetics, rabbit main EFD study
assay.context: female, in vivo, 10 mg/kg/day
recorded.endpoint: Cmax (ng/mL)
One number for each entry, in ng/mL.

The recorded Cmax for CS(=O)(=O)c1ccc(-c2cnc(N)c(-c3ccc(C(F)(F)F)nc3)c2)cc1 [MMV390048] is 3410

----------
protocol: Toxicokinetics, rabbit main EFD study
assay.context: female, in vivo, 3 mg/kg/day
recorded.endpoint: Cmax (ng/mL)
Numbers only, in ng/mL.

Memo: CS(=O)(=O)c1ccc(-c2cnc(N)c(-c3ccc(C(F)(F)F)nc3)c2)cc1 [MMV390048] , reported Cmax: 894

----------
protocol: Toxicokinetics, rabbit DRF EFD study
assay.context: female, in vivo, 3 mg/kg/day
recorded.endpoint: AUC(0-t) (ng·h/mL)
Give bare numbers, in ng·h/mL.

Lab note: measured AUC(0-t) of CS(=O)(=O)c1ccc(-c2cnc(N)c(-c3ccc(C(F)(F)F)nc3)c2)cc1 was 14900

----------
protocol: Toxicokinetics, rat main EFD study
Format: in vivo
assay.context: female, Sprague-Dawley (Crl:CD SD), rat, plasma, po, 6 mg/kg/day, C max, rat main EFD, 6 mg/kg/day oral, GD6
recorded.endpoint: Cmax
Please answer using the number first and the unit second.

Value of measured Cmax for the entry CS(=O)(=O)c1ccc(-c2cnc(N)c(-c3ccc(C(F)(F)F)nc3)c2)cc1 : 1380 ng/mL

----------
protocol: Toxicokinetics, rat DRF EFD study
Format: in vivo
assay.context: female, Sprague-Dawley (Crl:CD SD), rat, plasma, po, 60 mg/kg/day, C max, rat DRF EFD, 60 mg/kg/day oral, GD6
recorded.endpoint: Cmax (ng/mL)
One number for each entry, in ng/mL.

Form field Cmax, entry CS(=O)(=O)c1ccc(-c2cnc(N)c(-c3ccc(C(F)(F)F)nc3)c2)cc1 [MMV390048] : 15600

----------
protocol: Toxicokinetics, rat main EFD study
Type: in vivo
assay.context: female, Sprague-Dawley (Crl:CD SD), rat, plasma, po, 2 mg/kg/day, C max, rat main EFD, 2 mg/kg/day oral, GD6
recorded.endpoint: Cmax

Lab note: CS(=O)(=O)c1ccc(-c2cnc(N)c(-c3ccc(C(F)(F)F)nc3)c2)cc1 gave Cmax of 680 ng/mL

----------
protocol: Toxicokinetics, rabbit DRF EFD study
assay.context: female, in vivo, 1 mg/kg/day
recorded.endpoint: Tmax (h)
Give bare numbers, in h.

Record CS(=O)(=O)c1ccc(-c2cnc(N)c(-c3ccc(C(F)(F)F)nc3)c2)cc1 [MMV390048] . Reported Tmax: 2

----------
protocol: Toxicokinetics, rat investigative EFD study
Type: in vivo
assay.context: female, Sprague-Dawley (Crl: OFA SD), rat, plasma, po, 40 mg/kg/day, AUC(0−t), rat investigative EFD, 40 mg/kg/day oral, GD17
recorded.endpoint: AUC(0-t) (µg·h/mL)
Give bare numbers, in µg·h/mL.

compound CS(=O)(=O)c1ccc(-c2cnc(N)c(-c3ccc(C(F)(F)F)nc3)c2)cc1 , AUC(0-t) observed: 310

----------
protocol: Toxicokinetics, rat investigative EFD study
Format: in vivo
assay.context: female, Sprague-Dawley, rat, plasma, po, 20 mg/kg/day, AUC(0−t), rat investigative EFD, 20 mg/kg/day oral, GD6
recorded.endpoint: AUC(0-t) (ng·h/mL)
One number for each entry, in ng·h/mL.

Noted for CS(=O)(=O)c1ccc(-c2cnc(N)c(-c3ccc(C(F)(F)F)nc3)c2)cc1 : its AUC(0-t) reads 92900

----------
protocol: Toxicokinetics, rat DRF EFD study
Type: in vivo
assay.context: female, Sprague-Dawley (Crl:CD SD), rat, plasma, po, 60 mg/kg/day, T max, rat DRF EFD, 60 mg/kg/day oral, GD17
recorded.endpoint: Tmax (h)
Give bare numbers, in h.

Data point: CS(=O)(=O)c1ccc(-c2cnc(N)c(-c3ccc(C(F)(F)F)nc3)c2)cc1 ; Tmax = 4

----------
protocol: Toxicokinetics, rat DRF EFD study
Assay type: in vivo
assay.context: female, Sprague-Dawley (Crl:CD SD), rat, plasma, po, 60 mg/kg/day, C max, rat DRF EFD, 60 mg/kg/day oral, GD17
recorded.endpoint: Cmax

Cmax reading for CS(=O)(=O)c1ccc(-c2cnc(N)c(-c3ccc(C(F)(F)F)nc3)c2)cc1 : 21300 ng/mL

----------
test.target: PI3Kδ (Homo sapiens, UniProt O00329)
Sequence (O00329 whole entry): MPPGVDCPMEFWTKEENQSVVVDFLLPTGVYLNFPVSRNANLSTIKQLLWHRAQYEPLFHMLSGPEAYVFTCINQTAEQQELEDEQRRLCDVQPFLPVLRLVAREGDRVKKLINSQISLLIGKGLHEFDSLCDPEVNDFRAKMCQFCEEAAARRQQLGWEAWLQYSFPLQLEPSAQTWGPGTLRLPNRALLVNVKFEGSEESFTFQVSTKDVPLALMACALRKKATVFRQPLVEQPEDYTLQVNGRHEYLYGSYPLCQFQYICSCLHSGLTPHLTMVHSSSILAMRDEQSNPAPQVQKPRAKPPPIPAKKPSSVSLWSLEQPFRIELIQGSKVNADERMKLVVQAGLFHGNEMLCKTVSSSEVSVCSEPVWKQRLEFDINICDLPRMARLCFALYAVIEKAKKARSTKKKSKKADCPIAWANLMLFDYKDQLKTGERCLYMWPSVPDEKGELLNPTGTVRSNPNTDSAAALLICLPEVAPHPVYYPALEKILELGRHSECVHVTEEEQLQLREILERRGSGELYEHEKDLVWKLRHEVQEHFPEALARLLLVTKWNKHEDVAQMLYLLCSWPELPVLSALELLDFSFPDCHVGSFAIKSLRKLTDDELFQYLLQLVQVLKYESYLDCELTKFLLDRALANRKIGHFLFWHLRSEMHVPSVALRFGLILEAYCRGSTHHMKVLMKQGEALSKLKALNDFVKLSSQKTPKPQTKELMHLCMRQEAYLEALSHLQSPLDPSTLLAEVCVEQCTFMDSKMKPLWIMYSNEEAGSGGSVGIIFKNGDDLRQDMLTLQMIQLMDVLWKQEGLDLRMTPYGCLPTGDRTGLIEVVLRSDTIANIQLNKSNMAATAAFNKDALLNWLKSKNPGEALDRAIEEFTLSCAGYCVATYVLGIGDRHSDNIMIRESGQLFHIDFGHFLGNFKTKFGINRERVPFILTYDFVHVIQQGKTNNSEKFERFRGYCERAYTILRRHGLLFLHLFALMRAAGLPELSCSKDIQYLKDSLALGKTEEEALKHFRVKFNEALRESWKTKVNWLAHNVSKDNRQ
Sequence (P27986 whole entry partner): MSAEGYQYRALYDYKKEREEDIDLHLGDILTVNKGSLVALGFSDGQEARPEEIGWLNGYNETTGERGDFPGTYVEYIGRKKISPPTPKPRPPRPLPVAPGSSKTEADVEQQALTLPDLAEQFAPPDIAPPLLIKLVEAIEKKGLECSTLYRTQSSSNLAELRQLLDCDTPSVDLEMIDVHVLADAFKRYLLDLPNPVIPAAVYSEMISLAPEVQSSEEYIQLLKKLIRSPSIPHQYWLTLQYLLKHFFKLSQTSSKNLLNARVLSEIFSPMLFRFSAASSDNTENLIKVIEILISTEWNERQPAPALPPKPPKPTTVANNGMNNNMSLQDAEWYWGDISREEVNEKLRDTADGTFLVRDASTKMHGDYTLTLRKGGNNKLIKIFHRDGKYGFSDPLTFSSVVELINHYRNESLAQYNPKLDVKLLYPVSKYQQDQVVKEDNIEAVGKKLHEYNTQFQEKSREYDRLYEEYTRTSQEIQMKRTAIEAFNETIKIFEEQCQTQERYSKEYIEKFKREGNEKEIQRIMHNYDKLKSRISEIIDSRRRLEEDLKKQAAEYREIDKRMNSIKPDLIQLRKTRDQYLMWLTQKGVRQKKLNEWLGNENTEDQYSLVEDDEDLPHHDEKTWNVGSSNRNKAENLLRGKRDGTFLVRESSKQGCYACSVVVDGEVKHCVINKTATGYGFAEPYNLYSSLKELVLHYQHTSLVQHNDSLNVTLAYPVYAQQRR
protocol: ADP-Glo Kinase Assay, PI3Kδ
Assay type: biochemical
recorded.endpoint: pIC50
Answers are plain numbers, as −log10 of the molar value.

The reported pIC50 of the molecule CS(=O)(=O)c1ccc(-c2cnc(N)c(-c3ccc(C(F)(F)F)nc3)c2)cc1 [MMV390048] was 5.09

----------
protocol: Rat main embryofetal developmental toxicity study
Assay type: in vivo
assay.context: female, Sprague-Dawley, rat, in vivo, oral, maternal NOAEL, rat main EFD
recorded.endpoint: NOAEL (mg/kg/day)
Give bare numbers, in mg/kg/day.

Query CS(=O)(=O)c1ccc(-c2cnc(N)c(-c3ccc(C(F)(F)F)nc3)c2)cc1 yields NOAEL of 2

----------
protocol: Toxicokinetics, rabbit DRF EFD study
assay.context: female, in vivo, 10 mg/kg/day
recorded.endpoint: AUC(0-t) (ng·h/mL)
Answers are plain numbers, in ng·h/mL.

Looking up CS(=O)(=O)c1ccc(-c2cnc(N)c(-c3ccc(C(F)(F)F)nc3)c2)cc1 , I found its AUC(0-t) recorded as 64500

----------
protocol: Toxicokinetics, rat main EFD study
Assay type: in vivo
assay.context: female, Sprague-Dawley (Crl:CD SD), rat, plasma, po, 6 mg/kg/day
recorded.endpoint: Tmax (h)
One number for each entry, in h.

The compound listed as CS(=O)(=O)c1ccc(-c2cnc(N)c(-c3ccc(C(F)(F)F)nc3)c2)cc1 [MMV390048] shows Tmax equal to 2

----------
test.target: PI3Kγ (Homo sapiens, UniProt P48736)
Sequence (P48736 whole entry): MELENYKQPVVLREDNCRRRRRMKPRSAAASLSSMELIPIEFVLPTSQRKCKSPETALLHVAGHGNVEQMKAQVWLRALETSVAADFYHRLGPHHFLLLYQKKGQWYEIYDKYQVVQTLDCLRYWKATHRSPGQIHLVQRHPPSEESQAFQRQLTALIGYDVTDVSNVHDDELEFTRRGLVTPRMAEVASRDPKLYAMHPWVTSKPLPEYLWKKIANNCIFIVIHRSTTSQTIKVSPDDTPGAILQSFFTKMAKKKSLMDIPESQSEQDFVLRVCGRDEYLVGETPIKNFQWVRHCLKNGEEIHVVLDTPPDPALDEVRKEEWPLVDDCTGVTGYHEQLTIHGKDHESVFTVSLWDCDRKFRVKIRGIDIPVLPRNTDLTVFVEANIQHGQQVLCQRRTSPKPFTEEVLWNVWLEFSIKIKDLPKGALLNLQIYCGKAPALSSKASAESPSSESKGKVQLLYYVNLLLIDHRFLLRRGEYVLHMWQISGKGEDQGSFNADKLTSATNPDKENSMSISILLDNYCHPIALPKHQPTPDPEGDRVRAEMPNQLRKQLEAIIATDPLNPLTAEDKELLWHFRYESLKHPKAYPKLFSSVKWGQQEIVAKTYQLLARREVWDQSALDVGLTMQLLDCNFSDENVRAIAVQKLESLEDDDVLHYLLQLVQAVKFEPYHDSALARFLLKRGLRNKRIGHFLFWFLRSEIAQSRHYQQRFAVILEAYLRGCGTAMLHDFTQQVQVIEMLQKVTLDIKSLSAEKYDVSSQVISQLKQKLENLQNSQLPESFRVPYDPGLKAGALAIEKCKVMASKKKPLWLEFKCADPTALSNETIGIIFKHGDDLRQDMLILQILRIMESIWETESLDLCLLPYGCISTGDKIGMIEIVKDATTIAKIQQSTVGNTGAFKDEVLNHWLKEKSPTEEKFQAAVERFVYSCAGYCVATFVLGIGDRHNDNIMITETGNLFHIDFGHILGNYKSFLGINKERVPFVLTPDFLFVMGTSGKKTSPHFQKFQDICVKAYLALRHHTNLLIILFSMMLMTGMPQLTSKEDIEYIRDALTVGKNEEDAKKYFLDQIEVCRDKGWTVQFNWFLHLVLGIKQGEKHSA
protocol: ADP-Glo Kinase Assay, PI3Kγ
Assay type: biochemical
recorded.endpoint: IC50 (µM)
One number for each entry, in µM.

The compound CS(=O)(=O)c1ccc(-c2cnc(N)c(-c3ccc(C(F)(F)F)nc3)c2)cc1 , when measured on PI3Kγ (Homo sapiens, UniProt P48736), yielded IC50 of 4.3

----------
protocol: Toxicokinetics, rat investigative EFD study
Type: in vivo
assay.context: female, Sprague-Dawley, rat, plasma, po, 20 mg/kg/day
recorded.endpoint: Tmax (h)
One number for each entry, in h.

Form: compound = CS(=O)(=O)c1ccc(-c2cnc(N)c(-c3ccc(C(F)(F)F)nc3)c2)cc1 ; Tmax = 7

----------
protocol: Toxicokinetics, rat main EFD study
Format: in vivo
assay.context: female, Sprague-Dawley (Crl:CD SD), rat, plasma, po, 6 mg/kg/day, AUC(0−t), rat main EFD, 6 mg/kg/day oral, GD6
recorded.endpoint: AUC(0-t) (ng·h/mL)
Answers are plain numbers, in ng·h/mL.

Measured AUC(0-t), CS(=O)(=O)c1ccc(-c2cnc(N)c(-c3ccc(C(F)(F)F)nc3)c2)cc1 : 19600

----------
test.target: PI4Kα (Homo sapiens, UniProt P42356)
Sequence (P42356 whole entry): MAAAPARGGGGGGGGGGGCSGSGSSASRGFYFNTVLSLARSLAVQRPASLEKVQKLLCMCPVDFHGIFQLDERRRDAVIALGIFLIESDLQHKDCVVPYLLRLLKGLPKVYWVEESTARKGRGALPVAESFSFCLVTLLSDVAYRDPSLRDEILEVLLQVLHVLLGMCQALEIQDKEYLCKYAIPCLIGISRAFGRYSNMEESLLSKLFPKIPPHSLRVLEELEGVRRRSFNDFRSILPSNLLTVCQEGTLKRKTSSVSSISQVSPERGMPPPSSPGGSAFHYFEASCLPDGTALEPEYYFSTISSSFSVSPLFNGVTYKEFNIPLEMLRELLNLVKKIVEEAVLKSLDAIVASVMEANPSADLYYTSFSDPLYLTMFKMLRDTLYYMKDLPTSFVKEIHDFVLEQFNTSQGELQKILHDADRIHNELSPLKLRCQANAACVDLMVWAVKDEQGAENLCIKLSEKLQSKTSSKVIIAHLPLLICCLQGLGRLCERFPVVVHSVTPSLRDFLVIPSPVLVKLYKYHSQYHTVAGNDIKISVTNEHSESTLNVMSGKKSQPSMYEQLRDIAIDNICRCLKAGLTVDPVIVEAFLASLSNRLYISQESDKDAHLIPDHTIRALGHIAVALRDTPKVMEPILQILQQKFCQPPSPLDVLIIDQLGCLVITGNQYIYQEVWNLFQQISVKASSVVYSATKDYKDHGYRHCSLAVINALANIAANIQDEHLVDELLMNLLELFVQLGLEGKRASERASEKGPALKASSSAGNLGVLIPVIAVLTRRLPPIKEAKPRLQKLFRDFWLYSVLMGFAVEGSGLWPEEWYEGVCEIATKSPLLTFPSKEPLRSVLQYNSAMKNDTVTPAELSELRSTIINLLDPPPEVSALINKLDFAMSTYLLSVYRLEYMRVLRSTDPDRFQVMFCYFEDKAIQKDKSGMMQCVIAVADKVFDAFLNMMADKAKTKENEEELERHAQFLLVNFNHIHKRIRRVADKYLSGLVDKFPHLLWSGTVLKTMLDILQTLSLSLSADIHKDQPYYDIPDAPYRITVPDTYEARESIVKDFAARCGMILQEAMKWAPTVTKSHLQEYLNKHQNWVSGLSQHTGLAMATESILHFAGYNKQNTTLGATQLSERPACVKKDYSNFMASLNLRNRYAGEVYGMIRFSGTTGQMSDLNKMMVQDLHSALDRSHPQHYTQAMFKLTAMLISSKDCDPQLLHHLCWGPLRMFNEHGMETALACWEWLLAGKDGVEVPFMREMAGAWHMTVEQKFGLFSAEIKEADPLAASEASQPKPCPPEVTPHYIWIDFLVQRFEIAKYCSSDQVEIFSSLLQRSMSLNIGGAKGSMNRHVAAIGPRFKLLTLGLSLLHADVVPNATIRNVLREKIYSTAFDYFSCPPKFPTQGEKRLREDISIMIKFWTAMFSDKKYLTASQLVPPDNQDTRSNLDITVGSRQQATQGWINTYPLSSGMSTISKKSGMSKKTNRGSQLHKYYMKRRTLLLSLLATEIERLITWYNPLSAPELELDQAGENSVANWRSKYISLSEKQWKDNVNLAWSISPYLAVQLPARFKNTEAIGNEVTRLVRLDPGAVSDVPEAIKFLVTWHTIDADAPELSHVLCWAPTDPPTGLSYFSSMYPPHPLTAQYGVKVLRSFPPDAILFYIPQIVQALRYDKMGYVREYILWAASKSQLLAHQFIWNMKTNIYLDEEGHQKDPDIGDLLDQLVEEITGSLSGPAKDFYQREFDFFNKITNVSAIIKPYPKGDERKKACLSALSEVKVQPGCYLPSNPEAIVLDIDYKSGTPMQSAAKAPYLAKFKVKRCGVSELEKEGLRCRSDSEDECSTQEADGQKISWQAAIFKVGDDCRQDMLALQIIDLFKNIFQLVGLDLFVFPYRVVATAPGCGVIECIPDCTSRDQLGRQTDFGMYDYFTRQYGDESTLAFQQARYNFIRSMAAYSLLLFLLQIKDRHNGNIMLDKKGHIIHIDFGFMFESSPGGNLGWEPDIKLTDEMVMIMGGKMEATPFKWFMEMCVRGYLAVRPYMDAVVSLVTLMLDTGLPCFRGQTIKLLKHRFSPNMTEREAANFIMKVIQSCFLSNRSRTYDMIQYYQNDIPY
recorded.endpoint: pIC50
Answers are plain numbers, as −log10 of the molar value.

Lab note: CS(=O)(=O)c1ccc(-c2cnc(N)c(-c3ccc(C(F)(F)F)nc3)c2)cc1 gave pIC50 of 4.73

----------
protocol: Rat investigative embryofetal developmental toxicity study
Type: in vivo
assay.context: female, Sprague-Dawley, rat, in vivo, oral
recorded.endpoint: NOAEL
# do not omit the unit; it follows the number

Item: CS(=O)(=O)c1ccc(-c2cnc(N)c(-c3ccc(C(F)(F)F)nc3)c2)cc1 | NOAEL: 20 mg/kg/day

----------
protocol: Toxicokinetics, rat main EFD study
Format: in vivo
assay.context: female, Sprague-Dawley (Crl:CD SD), rat, plasma, po, 6 mg/kg/day, AUC(0−t), rat main EFD, 6 mg/kg/day oral, GD17
recorded.endpoint: AUC(0-t) (ng·h/mL)
Numbers only, in ng·h/mL.

Recorded AUC(0-t) (compound CS(=O)(=O)c1ccc(-c2cnc(N)c(-c3ccc(C(F)(F)F)nc3)c2)cc1 ): 21400

----------
protocol: Toxicokinetics, rat main EFD study
Format: in vivo
assay.context: female, Sprague-Dawley (Crl:CD SD), rat, plasma, po, 2 mg/kg/day, AUC(0−t), rat main EFD, 2 mg/kg/day oral, GD6
recorded.endpoint: AUC(0-t)

Per the records, this molecule ( CS(=O)(=O)c1ccc(-c2cnc(N)c(-c3ccc(C(F)(F)F)nc3)c2)cc1 [MMV390048] ) has AUC(0-t) equal to 3.75 µg·h/mL

----------
protocol: Toxicokinetics, rat main EFD study
Assay type: in vivo
assay.context: female, Sprague-Dawley (Crl:CD SD), rat, plasma, po, 6 mg/kg/day, C max, rat main EFD, 6 mg/kg/day oral, GD17
recorded.endpoint: Cmax (ng/mL)
Give bare numbers, in ng/mL.

Please fill in: Cmax reported for CS(=O)(=O)c1ccc(-c2cnc(N)c(-c3ccc(C(F)(F)F)nc3)c2)cc1 [MMV390048] = 1600

Source: paper PMC9321963
